- experimental-target: L-lactate dehydrogenase (Plasmodium falciparum (isolate CDC / Honduras)) (UniProt Q27743)
- Sequence (Q27743 whole entry, looked up): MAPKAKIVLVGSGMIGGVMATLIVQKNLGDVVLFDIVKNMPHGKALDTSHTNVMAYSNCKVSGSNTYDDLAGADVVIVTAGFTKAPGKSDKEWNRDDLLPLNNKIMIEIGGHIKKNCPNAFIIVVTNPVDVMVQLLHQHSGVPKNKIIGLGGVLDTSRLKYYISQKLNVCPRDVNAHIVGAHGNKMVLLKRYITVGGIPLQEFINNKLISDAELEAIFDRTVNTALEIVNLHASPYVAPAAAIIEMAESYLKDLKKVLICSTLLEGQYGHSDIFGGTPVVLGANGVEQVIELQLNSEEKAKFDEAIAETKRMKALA
- experiment-summary: PfLDH activity inhibition – cell lysate, 3D7 strain, counter-screen for P. falciparum growth inhibition project (AID 2304);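 further: 0% = vehicle and 100% = reference inhibitor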
- condition-summary: P. falciparum 3D7 crude extract, LDH APAD/NBT absorbance; at 2 µM; stronger effect = higher value
Below, each entry is listed alongside its reported inhibition.
measured-quantity: inhibition (%)

| compound | experimental-target | data-value |
| --- | --- | --- |
| COc1cccc(-c2csc(C(=O)NC3CCCCN(Cc4ccc(C(C)(C)C)cc4)C3)c2)c1 (stereo not drawn) | L-lactate dehydrogenase (Plasmodium falciparum (isolate CDC / Honduras)) (UniProt Q27743) | -2 |
| CC1(C)N=C(N)N=C(N)N1OCCCOc1cccc(Cl)c1 | L-lactate dehydrogenase (Plasmodium falciparum (isolate CDC / Honduras)) (UniProt Q27743) | -4 |
| FC(F)(F)c1cc(Nc2ccc(Oc3ccccc3)cc2)c2cc(-c3ccncc3)ccc2n1 | L-lactate dehydrogenase (Plasmodium falciparum (isolate CDC / Honduras)) (UniProt Q27743) | -2 |

* * *

Below, each entry is listed alongside its reported inhibition.
- experimental-target: L-lactate dehydrogenase (Plasmodium falciparum (isolate CDC / Honduras))
- experiment-summary: PfLDH activity inhibition – cell lysate, 3D7 strain, counter-screen for P. falciparum growth inhibition project (AID 2304);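 further: 0% = vehicle and 100% = reference inhibitor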
- condition-summary: P. falciparum 3D7 crude extract, LDH APAD/NBT absorbance; at 2 µM; stronger effect = higher value
measured-quantity: inhibition (%)

| molecule | measured-quantity | quantity-unit | data-value |
| --- | --- | --- | --- |
| COC(=O)c1ccc(CCC(C)NCC(O)c2cccc(Cl)c2)cc1 (stereo not given) | inhibition | % | 1 |
| CCc1cc(=O)[nH]c(-n2nc(C)cc2NC(=O)CC(c2ccccc2)c2ccccc2)n1 | inhibition | % | 4 |
| COc1cccc2c(Oc3ccccc3C)ccnc12 | inhibition | % | 4 |
| CC(Oc1ccc(Cl)cc1)C(=O)Nc1cc(C(F)(F)F)ccc1-n1cncn1 (stereo not given) | inhibition | % | 2 |
| CCOC(=O)c1c[nH]c2c(ccc3ccccc32)c1=O | inhibition | % | 3 |
| CCN(CC)c1ccc(C(=O)Cn2ccc(=N)cc2)cc1 | inhibition | % | 3 |
| O=C(CN(c1cccc(C(F)(F)F)c1)S(=O)(=O)c1ccc(Cl)cc1)NCCC(c1ccccc1)c1ccccc1 | inhibition | % | -2 |
| COc1cc2nc(N3CCC(CNC(=O)c4ccc(-c5ccc(C(=O)N(C)C)cc5)cc4)CC3)nc(N)c2cc1OC | inhibition | % | 0 |
| CCOc1cccc(C(=O)Nc2ccc(-c3nc4ccccc4[nH]3)cc2)c1 | inhibition | % | -1 |
| CCNC[C@@H](O)[C@H](Cc1ccccc1)NC(=O)c1cc2c3c(c1)c(CC)cn3CCS(=O)(=O)N2C | inhibition | % | -4 |

* * *

- experiment-summary: antimalarial activity against Dd2 strain (AID 2302);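 further: 0% = DMSO untreated growth and 100% = chloroquine plus artemisinin killed control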
- condition-summary: P. falciparum Dd2 in RBCs, LDH growth readout, 72 h; at 2 µM; stronger effect = higher value
Below, each entry is listed alongside its reported growth inhibition.

| molecule | quantity-unit | growth inhibition |
| --- | --- | --- |
| Cc1[nH]c2ccccc2c(=O)c1[N+](=O)[O-] | % | -2 |
| O=C(Nc1ccc(Cn2ncc(N3CCCNCC3)c(Cl)c2=O)cc1)Nc1cccc(SC(F)(F)F)c1 | % | 33 |
| COc1cc(-c2ccc(-c3cnc(N)nc3OC)[nH]2)cc(OC)c1OC | % | 54 |
| CCCCCCN1CCC(NCc2cccc3ccccc23)CC1 | % | 12 |
| CCCC(CNCc1cccc(OCC)c1)CNc1cc(=O)c2ccccc2[nH]1 (centres undefined) | % | 97 |
| COc1ccc2nccc([C@@H](O)CN3CCC(NC(=O)/C=C/c4ccc5cc(C)[nH]c5c4)CC3)c2c1 | % | 93 |
| Cc1cccc(C(=O)N2CCN(Cc3cccc(NC(=O)c4cccs4)c3)CC2)c1 | % | 95 |
| CN(C)c1ccc(CN2CCCCC(NC(=O)c3cc(-c4ccccc4Cl)cs3)C2)cc1 (centres undefined) | % | 14 |
| Cc1cc(I)ccc1Nc1nc2nonc2nc1Nc1ccc(I)cc1C | % | 96 |
| O=C(CCc1ccccc1)N[C@H](Cc1c[nH]c2ccccc12)C(=O)N1CCC(NCc2ccc3c(c2)Cc2ccccc2-3)CC1 | % | 8 |
| COc1ccc2c(NN=Cc3cccc(Cl)c3)ccnc2c1 | % | 94 |
| NC(=O)c1cccc(C(=O)Nc2cccc(-c3cccc(-c4nc5ccc(C(F)(F)F)cc5[nH]4)c3)c2)c1 | % | 85 |
| COc1ccc2nc(C)cc(Nc3ccc(Oc4ccc5ccccc5c4)c(Cl)c3)c2c1 | % | 99 |
| O=C(Nc1cccc(CN2CCN(C(=O)c3cccc(F)c3)CC2)c1)c1cccs1 | % | 95 |
| Cc1ccc(/C=C/C(=O)N2CCC(CCN3CCC(c4c[nH]c5ccccc45)CC3)CC2)cc1C | % | 5 |
| COc1ccc(CNCc2cccc(-c3cccc(-c4nc5ccc(F)cc5[nH]4)c3)c2)cc1 | % | 55 |
| Cc1cccc2[nH]cc(C3CCN(CCC4CCN(C(=O)/C=C/c5ccc(Cl)c(Cl)c5)CC4)CC3)c12 | % | 8 |
| CCCN(CCC)C(=O)c1cc(C(=O)N[C@@H](Cc2ccccc2)[C@H](O)CNC(C)(C)c2cccc(C(F)(F)F)c2)cc(N2CCCCS2(=O)=O)c1 | % | 98 |
| O=C(Nc1ccc(Cn2ncc(N3CCCNCC3)c(Cl)c2=O)cc1)Nc1ccc(C(F)(F)F)cc1 | % | 58 |
| CC1(C)N=C(N)N=C(N)N1OCc1ccc(-c2ccccc2)cc1 | % | 97 |
| CC(C)NCC(O)Cn1c2ccc(Br)cc2c2cc(Br)ccc21 (centres undefined) | % | 100 |
| CC(C)CNC(=O)c1cncc(-c2ccc(CN3CCC(N4CCCC4)CC3)cc2)c1 | % | 42 |
| Cc1cc(NN=Cc2ccccc2[N+](=O)[O-])c2cc(C(F)(F)F)ccc2n1 | % | 39 |
| CC(Nc1ncc(-c2ccsc2)c(-c2nccs2)n1)c1ccc2c(c1)OCCO2 (centres undefined) | % | 66 |
| COc1cccc2c(NN=Cc3ccccc3[N+](=O)[O-])cc(C)nc12 | % | 32 |
| COc1ccc(Nc2nc(NN=Cc3ccc(-c4ccc([N+](=O)[O-])cc4)o3)nc(Nc3ccccc3)n2)cc1 | % | 17 |
| N[C@@H](Cc1ccc(O)cc1)C(=O)NC(c1ccccc1)c1c(O)ccc2ccccc12 (some centres undefined) | % | 95 |
| CC[C@H](C)CNC(=O)c1cccc(-c2cccc(CNCC3CNCCCO3)c2)n1 (some centres undefined) | % | 54 |
| Cc1cc(=O)c(-c2ccc(Oc3ccc(F)cc3)cc2)c(C)[nH]1 | % | 59 |
| Cc1noc(C)c1-c1cccc(CNCc2ccc(-c3ccc(-c4nc5ccc(F)cc5[nH]4)cc3)cc2)c1 | % | 92 |
| CC1(C)N=C(N)N=C(N)N1OCCCc1cccc(C(F)(F)F)c1 | % | 95 |
| CC(C)CNCc1ccc(-c2cccc(CNC3CCN(Cc4ccccc4)CC3)c2)cc1 | % | 100 |
| COc1ccc(-n2nc(C)c3c2NC(=O)CC3c2ccccc2OCc2ccc(F)cc2)cc1 (centres undefined) | % | 65 |
| Cc1cc(N(C)C2CCN(CC3CCCCC3)C2)nc(Nc2ccc(Br)cc2)n1 (centres undefined) | % | 38 |

* * *

- experiment-summary: antimalarial activity against Dd2 strain (AID 2302);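 further: 0% = DMSO untreated growth and 100% = chloroquine plus artemisinin killed control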
- condition-summary: P. falciparum Dd2 in RBCs, LDH growth readout, 72 h; at 2 µM; stronger effect = higher value
Below, each entry is listed alongside its reported growth inhibition.
measured-quantity: growth inhibition (%)

| molecule | data-value |
| --- | --- |
| Oc1cccc(Nc2ccnc3cc(-c4cc5ccccc5o4)ccc23)c1 | 71 |
| CC(C)Nc1nc(NCCc2cnc[nH]2)nc(NCc2cccc3ccccc23)n1 | 0 |
| Cc1ccc(C2CCN(CCCCNC(=O)c3ccc(NC(=O)c4ccc(Cl)cc4)cc3)CC2)c(C)c1 | 10 |
| N#Cc1ccc2c(c1)CCN(CCC1CCC(NC(=O)Nc3ccnc4ccccc34)CC1)C2 (stereo unspecified) | 77 |
| O=c1cc(NCCC(CNCCc2ccccc2)NCc2cc(Br)cc(Br)c2)[nH]c2ccccc12 (stereo unspecified) | 47 |
| Cc1cc(C2CCN(CCCCNC(=O)c3ccc(-c4ccc(C(F)(F)F)cc4)cc3)CC2)c(C)cc1OCCOC1CCCCO1 (stereo unspecified) | 5 |
| COc1ccccc1-n1c(SCC(=O)Nc2ccccc2F)nc2cccnc21 | 88 |
| CC(C)C[C@H](NC(=O)c1cc2ccccc2s1)C(=O)N[C@H]1CCN(Cc2ccc(I)c(OC3CCN(C)C3)c2)C1 (stereo partly specified) | 95 |
| c1ccc(-c2ccc(-c3csc(Nc4ccncc4)n3)cc2)cc1 | 97 |
| Cc1cc(C(=O)Nc2ccc(-c3ccccc3)cc2)no1 | 94 |
| Cc1[nH]c(C)c(-c2ccc(-c3ccc(Cl)cc3)nc2)c(=O)c1Cl | 96 |
| O=C(Nc1cccc(CN2CCCN(Cc3ccc(O)cc3)CC2)c1)c1cc2ccccc2o1 | 62 |
| S=C(NCCCCCN1CCC(c2c[nH]c3ccccc23)CC1)Nc1cc(Cl)cc(Cl)c1 | 35 |
| CCOc1cc2ncnc(Nc3ccc(OCc4ccccc4F)c(Cl)c3)c2cc1OCC | 74 |
| O=C(Cn1c(=O)cnc2ccccc21)Nc1cccc(C(=O)Nc2cccc(C(F)(F)F)c2)c1 | 66 |
| N#Cc1cccc(-c2cnc(N)c(-c3nc4ccc(S(N)(=O)=O)cc4[nH]3)c2)c1 | 99 |
| Cc1[nH]nc2ccc(-c3cc(OC[C@@H](N)Cc4ccccc4)cnc3-c3ccccc3OCc3cccc(F)c3)cc12 | 91 |
| Cc1cc(C(=O)N(Cc2ccc(-c3ccc(CNCCc4ccc(S(C)(=O)=O)cc4)cn3)cc2)C(C)CN(C)C)ccc1[N+](=O)[O-] (stereo unspecified) | 46 |
| CCn1ccc2c(N3CCCC3=O)cc(C(=O)N[C@@H](Cc3ccccc3)[C@H](O)CNC3CCCCC3)cc21 | 98 |
| Cc1nc2c(=O)sc3ccccc3c2n1Cc1ccccc1 | 26 |
| CN(C(=O)Nc1ccc(F)cc1)C1CCN(CCCCCNC(=O)/C=C/c2ccc(Cl)c(Cl)c2)CC1 | -3 |
| CCN(CC)CCCN(C(=O)Nc1c(Cl)cncc1Cl)c1nc(-c2ccc(F)cc2)cs1 | 93 |
| COCCN1CCC(NCC(C)(C)c2nc(-c3ccc(Cl)c(O)c3)c(-c3ccncc3)[nH]2)CC1 | 47 |
| C[C@H](Nc1c(Nc2ccc3[nH]ccc3c2)c(=O)c1=O)C1CCCCC1 | 11 |
| CC[C@H](C)CNC(=O)c1cncc(-c2ccc(CNCCCc3ccccc3)cc2)c1 | 99 |
| CCc1c(C)nc(-n2nc(C)cc2NC(=O)C(CC)c2ccccc2)[nH]c1=O (stereo unspecified) | 93 |
| O=[N+]([O-])c1ccc(Nc2nc(NCc3ccccc3)nc(NN=Cc3ccccc3[N+](=O)[O-])n2)cc1 | 99 |
| O=c1cc(NCCCNCc2cc(C(F)(F)F)ccc2Cl)[nH]c2ccccc12 | 20 |
| CN(C)c1cccc2c(S(=O)(=O)Nc3cccc(CCN4CCC(N5CCCCC5)CC4)c3)cccc12 | 54 |
| N#Cc1ccc(N2CCN(Cc3ccc(-c4cccc(-c5nc6ccccc6[nH]5)c4)cc3)CC2)nc1 | 29 |
| CCCCCCCc1c(C)[nH]c2cc(OC)ccc2c1=O | 98 |
